# target.of.assay: nucleolin (NCL) (Homo sapiens, UniProt P19338 1-710)
# Sequence (P19338 whole entry): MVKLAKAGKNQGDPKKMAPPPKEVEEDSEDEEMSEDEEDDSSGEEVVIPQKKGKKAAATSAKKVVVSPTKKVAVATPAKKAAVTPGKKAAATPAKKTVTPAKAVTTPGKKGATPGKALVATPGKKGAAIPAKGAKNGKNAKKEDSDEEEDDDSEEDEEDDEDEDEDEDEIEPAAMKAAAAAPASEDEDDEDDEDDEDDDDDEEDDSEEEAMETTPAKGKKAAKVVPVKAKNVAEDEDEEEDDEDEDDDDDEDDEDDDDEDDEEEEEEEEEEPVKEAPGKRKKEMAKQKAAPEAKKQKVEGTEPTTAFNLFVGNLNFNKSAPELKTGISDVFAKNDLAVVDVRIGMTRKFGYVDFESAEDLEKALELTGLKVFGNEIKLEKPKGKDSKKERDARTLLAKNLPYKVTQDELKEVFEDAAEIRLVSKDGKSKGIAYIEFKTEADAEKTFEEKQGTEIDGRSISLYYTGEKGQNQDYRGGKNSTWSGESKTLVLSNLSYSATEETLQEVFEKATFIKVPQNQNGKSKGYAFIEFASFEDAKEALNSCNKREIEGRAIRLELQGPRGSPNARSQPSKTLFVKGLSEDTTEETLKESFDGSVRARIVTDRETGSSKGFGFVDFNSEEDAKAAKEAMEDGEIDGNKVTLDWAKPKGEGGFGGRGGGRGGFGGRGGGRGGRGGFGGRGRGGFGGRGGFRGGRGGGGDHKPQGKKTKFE
# test.method.notes: EMSA

{"binder": "GGGTGGGTGGGTGGG (structured_DNA) [111]", "binding result": "binds"}
{"binder": "AGGGGGCTGGGCCGGGGACCCGGGAGGGGTCGGGACGGGGCGGGGT (structured_DNA) [hTert 5-12]", "binding result": "binds"}
{"binder": "GGGTTTGGGTTTGGGTTTGGG (structured_DNA) [(GGGTTT)4 = 333]", "binding result": "binds"}
